Task for the reader: assign each of the following sequences its reported recombinant barcode read abundance (log10).
Experiment: recombinant barcode read abundance after kanamycin selection (control-corrected) (log10(CPM+1)); higher = more efficient recombination; sequences stand for … in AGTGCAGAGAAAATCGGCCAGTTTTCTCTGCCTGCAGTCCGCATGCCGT…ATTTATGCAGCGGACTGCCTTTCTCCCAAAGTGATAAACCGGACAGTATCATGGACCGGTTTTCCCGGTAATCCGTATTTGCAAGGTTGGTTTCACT; site = the 11-nt target
Numbers only.

Example cases with answers are listed next.
>>> measured_number("AAACATGAATGGGTTCTAACCTGTTGCCTTT [AAACATGCTAG_LTGcore_AA_RTGcore_AA] (site AAACATGCTAG) (LTG core: AA, RTG core: AA)")
0.133
>>> measured_number("CGCGCCCCTTGGGTTCTAACCTGTTGCGGCA [CGCGCCCCTCC_LTGcore_CT_RTGcore_TG] (site CGCGCCCCTCC) (LTG core: CT, RTG core: TG)")
0

I'm hoping you can list recombinant barcode read abundance (log10) for every sequence here, please.
1. AAACAGTTCTGGGTTCTAACCTGTTGCCTGA [AAACAGTCTAG_LTGcore_TC_RTGcore_TC] (site AAACAGTCTAG) (LTG core: TC, RTG core: TC)
2. GGTGCCCCTTGGGTTCTAACCTGTTGCCGGT [GGTGCCCCTCG_LTGcore_CT_RTGcore_AC] (site GGTGCCCCTCG) (LTG core: CT, RTG core: AC)
3. GAGGCCTCTTGGGTTCTAACCTGTTGCCACG [GAGGCCTCTTG_LTGcore_CT_RTGcore_CG] (site GAGGCCTCTTG) (LTG core: CT, RTG core: CG)

[0.262, 0.0162, 0.128]
